System: HCT116/VM46 (a vinblastine-resistant strain of HCT116) cells
method.notes: Cell growth inhibition assay, HCT116/VM46
Format: cell-based, human
measurement.setup: 72 hours incubation, phosphatase assay; Pgp-overexpressing resistant line
Procedure: Compounds were tested for their cell growth inhibition of L1210 (ATCC no. CCL-219, mouse lymphocytic leukemia) cells, HCT116 (ATCC no. CCL-247, human colorectal carcinoma) cells, and HCT116/VM46 (a vinblastine-resistant strain of HCT116) cells in culture. […]
Field: pIC50. Provide a value for each of the compounds that follow.
Would you please state pIC50, meaning minus log10 of the concentration in mol/L, as a bare number?

For the compound shown here, CC[C@]1(NC(=O)N2CCc3ccccc3CC2)C[C@H]2CN(CCc3c([nH]c4ccccc34)[C@@](C(=O)OC)(c3cc4c(cc3OC)N(C)[C@H]3[C@@](O)(C(=O)OC)[C@H](OC(C)=O)[C@]5(CC)C=CCN6CC[C@]43[C@@H]65)C2)C1 , give the reported pIC50.
8.21

Now this one: CC[C@]1(NC(=O)N2CCCCCC2)C[C@H]2CN(CCc3c([nH]c4ccccc34)[C@@](C(=O)OC)(c3cc4c(cc3OC)N(C)[C@H]3[C@@](O)(C(=O)OC)[C@H](OC(C)=O)[C@]5(CC)C=CCN6CC[C@]43[C@@H]65)C2)C1
7.46

Now this one: CC[C@]1(NC(=O)N2CCC(F)C2)C[C@H]2CN(CCc3c([nH]c4ccccc34)[C@@](C(=O)OC)(c3cc4c(cc3OC)N(C)[C@H]3[C@@](O)(C(=O)OC)[C@H](OC(C)=O)[C@]5(CC)C=CCN6CC[C@]43[C@@H]65)C2)C1 (single isomer, unassigned) [Compound 17]
8.14

Now this one: CC[C@]1(NC(=O)N2Cc3ccc(Cl)cc3C2)C[C@H]2CN(CCc3c([nH]c4ccccc34)[C@@](C(=O)OC)(c3cc4c(cc3OC)N(C)[C@H]3[C@@](O)(C(=O)OC)[C@H](OC(C)=O)[C@]5(CC)C=CCN6CC[C@]43[C@@H]65)C2)C1
8.24

---

Test system: L1210 (mouse lymphocytic leukemia) cells
method.notes: Cell growth inhibition assay, L1210
Assay type: cell-based
measurement.setup: 72 hours incubation, phosphatase assay
readout.label: pIC50
Would you please state pIC50, meaning minus log10 of the concentration in mol/L, as a bare number?

What pIC50 appears in the records for this molecule with L1210 (mouse lymphocytic leukemia) cells? CC[C@]1(NC(=O)N2CCC(F)C2)C[C@H]2CN(CCc3c([nH]c4ccccc34)[C@@](C(=O)OC)(c3cc4c(cc3OC)N(C)[C@H]3[C@@](O)(C(=O)OC)[C@H](OC(C)=O)[C@]5(CC)C=CCN6CC[C@]43[C@@H]65)C2)C1 (single isomer, unassigned) [Compound 18]
9.22

Now this one: CC[C@]1(NC(=O)N2Cc3ccc(NC(=O)c4ccc(C(C)C)cc4)cc3C2)C[C@H]2CN(CCc3c([nH]c4ccccc34)[C@@](C(=O)OC)(c3cc4c(cc3OC)N(C)[C@H]3[C@@](O)(C(=O)OC)[C@H](OC(C)=O)[C@]5(CC)C=CCN6CC[C@]43[C@@H]65)C2)C1 [Compound 53]
8.54

Now this one: CC[C@]1(NC(=O)N2Cc3ccc(NC(=O)c4ccncc4)cc3C2)C[C@H]2CN(CCc3c([nH]c4ccccc34)[C@@](C(=O)OC)(c3cc4c(cc3OC)N(C)[C@H]3[C@@](O)(C(=O)OC)[C@H](OC(C)=O)[C@]5(CC)C=CCN6CC[C@]43[C@@H]65)C2)C1 [Compound 57]
9.57

Now this one: CC[C@]1(NC(=O)N2CCC(F)C2)C[C@H]2CN(CCc3c([nH]c4ccccc34)[C@@](C(=O)OC)(c3cc4c(cc3OC)N(C)[C@H]3[C@@](O)(C(=O)OC)[C@H](OC(C)=O)[C@]5(CC)C=CCN6CC[C@]43[C@@H]65)C2)C1 (single isomer, unassigned) [Compound 17]
9.21
